Reference source for all entries: patent US20250090699A1

test_system: mouse FAP (Mus musculus, UniProt P97321)
Construct: biotinylated His, Avi tag, mouse FAP (26-761, FAP-M82Q5); His; Avi tag (biotinylated); purchased AcroBiosystems FAP-M82Q5
Sequence (P97321 26-761): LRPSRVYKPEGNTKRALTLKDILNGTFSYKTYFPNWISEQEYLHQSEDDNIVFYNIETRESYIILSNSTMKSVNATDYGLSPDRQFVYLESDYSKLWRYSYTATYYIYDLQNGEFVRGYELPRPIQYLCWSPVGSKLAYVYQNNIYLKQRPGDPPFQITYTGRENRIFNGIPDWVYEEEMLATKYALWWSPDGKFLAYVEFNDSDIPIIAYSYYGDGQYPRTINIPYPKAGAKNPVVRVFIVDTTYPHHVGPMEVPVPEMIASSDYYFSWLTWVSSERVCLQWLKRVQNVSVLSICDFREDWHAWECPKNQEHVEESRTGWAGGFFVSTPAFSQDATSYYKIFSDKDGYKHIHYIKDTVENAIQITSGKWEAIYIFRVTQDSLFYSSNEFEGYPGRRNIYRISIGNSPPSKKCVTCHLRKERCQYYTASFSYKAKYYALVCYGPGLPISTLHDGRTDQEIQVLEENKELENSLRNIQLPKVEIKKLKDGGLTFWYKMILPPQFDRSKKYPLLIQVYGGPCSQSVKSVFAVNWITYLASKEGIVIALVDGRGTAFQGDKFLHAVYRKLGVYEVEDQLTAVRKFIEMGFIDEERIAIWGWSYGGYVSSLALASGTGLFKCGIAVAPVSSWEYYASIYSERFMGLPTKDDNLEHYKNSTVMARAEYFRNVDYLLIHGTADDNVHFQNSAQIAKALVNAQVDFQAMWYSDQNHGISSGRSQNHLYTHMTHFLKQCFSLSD
assay_protocol: Surface plasmon resonance (SPR) for peptide affinity, mouse FAP
Format: binding
pKd: −log10 of the molar value. Structures can show the parent of a compound that is named as a salt. Starred links: 1 amine or outer side, 2 acyl side, 3 side chain; linkers in the order of their positions; H or OH if unused. Non-standard residues stand in square brackets, D forms with d. Residues, ends and D or L forms follow the SMILES beside them. Groups on a side chain read outwards from the residue. *: point of attachment. Pyrrolidine(2S-CN,4,4-F2) = N#C[C@@H]1CC(F)(F)CN1*; Nicotinoyl(6-NMe3+) = C[N+](C)(C)c1ccc(C(=O)*)cn1; Phe(4-CH2NH2) = NCc1ccc(C[C@H](N)C(=O)O)cc1; Piperazinyl(4-CH2COOH) = O=C(O)CN1CCN(*)CC1; NMeF = CN[C@@H](Cc1ccccc1)C(=O)O; Ahp(2) = CCCCC[C@H](N)C(=O)O; NMeK = CN[C@@H](CCCCN)C(=O)O; hSer = N[C@@H](CCO)C(=O)O; AEEA = NCCOCCOCC(=O)O; CO = O=C([*:1])[*:2]; Propyl = CCC*
parameter_measured: pKd

molecule | result_modifier | measured_number
CCCOCC[C@@H]1NC(=O)[C@H](Cc2ccc(CNC(=O)COCCOCCNC(=O)c3ccc([N+](C)(C)C)nc3)cc2)NC(=O)[C@H](Cc2ccccc2)N(C)C(=O)CNC(=O)CNC(=O)[C@H]2CCCN2C(=O)[C@H](CC(=O)O)NC(=O)[C@H](CCCCNC(=O)N2CCN(CC(=O)O)CC2)NC(=O)CNC(=O)[C@H](Cc2c[nH]c3ccccc23)NC1=O [Example C58] (cyclo(D[dP]GG[NMeF][Phe(4-CH2NH2)]([AEEA-Nicotinoyl(6-NMe3+)])[hSer](Propyl)WGK([CO-Piperazinyl(4-CH2COOH)]))) | > | 10.77
CN1C(=O)CNC(=O)[C@H](CCCCN)NC(=O)[C@H]2CCCN2C(=O)[C@H](CC(=O)O)NC(=O)[C@H](Cc2ccc(O)cc2)NC(=O)CNC(=O)[C@H](Cc2c[nH]c3ccccc23)NC(=O)[C@H](CCC(=O)N2CC(F)(F)C[C@H]2C#N)NC(=O)[C@H](Cc2ccc(O)cc2)NC(=O)[C@@H]1Cc1ccccc1 [Example A29] (cyclo(KG[NMeF]YE(Pyrrolidine(2S-CN,4,4-F2))WGYD[dP])) | = | 10.36
CCCCC[C@@H]1NC(=O)[C@H](Cc2ccc(O)cc2)NC(=O)[C@H](Cc2ccccc2)N(C)C(=O)CNC(=O)CNC(=O)[C@H]2CCCN2C(=O)[C@H](CC(=O)O)NC(=O)[C@H](CCCCNC(=O)N2CCN(CC(=O)O)CC2)N(C)C(=O)CNC(=O)[C@H](Cc2c[nH]c3ccccc23)NC1=O [Example A3, TFA salt] (cyclo([Ahp(2)]WG[NMeK]([CO-Piperazinyl(4-CH2COOH)])D[dP]GG[NMeF]Y)) | = | 8.72
